- Test: Anti-metabolic effect (MTS) in the replicon cell line
- Assay Setup: human
Below, each of the compounds is paired with its reported CC50 at 72 h value.
Measured Metric: CC50 at 72 h

{"Compound": "C/C=C/C[C@H]1C(=O)N[C@@H](C(C)C)C(=O)N[C@@H](Cc2cccc(O)c2)C(=O)N2CCCC(N2)C(=O)O[C@H](/C(C)=C/C=C/C(=O)N(C)OC)C/C=C/C=C/[C@H](O)[C@H](C)[C@H]1O (some centres unmarked)", "Measured Value": "17.7 µM"}
{"Compound": "CC(=O)CC[C@H]1C(=O)N[C@@H](C(C)C)C(=O)N[C@@H](Cc2cccc(O)c2)C(=O)N2CCCC(N2)C(=O)O[C@H](/C(C)=C/C=C/C(=O)Nc2ccc(-c3ccccc3)cc2)C/C=C/C=C/[C@H](O)[C@H](C)[C@H]1O (some centres unmarked)", "Measured Value": "> 100 µM"}
{"Compound": "CCN(CC)C(=O)/C=C/C=C(\\C)[C@@H]1C/C=C/C=C/[C@H](O)[C@H](C)[C@@H](O)[C@@H](CCC(C)=O)C(=O)N[C@@H](C(C)C)C(=O)N[C@@H](Cc2cccc(O)c2)C(=O)N2CCCC(N2)C(=O)O1 (some centres unmarked)", "Measured Value": "> 100 µM"}
{"Compound": "CON(C)C(=O)/C=C/C=C(\\C)[C@@H]1C/C=C/C=C/[C@H](O)[C@H](C)[C@@H](O)[C@@H](CCC(C)=O)C(=O)N[C@@H](C(C)C)C(=O)N[C@@H](Cc2cccc(O)c2)C(=O)N2CCCC(N2)C(=O)O1 (some centres unmarked)", "Measured Value": "> 100 µM"}
{"Compound": "CC(=O)CC[C@H]1C(=O)N[C@@H](C(C)C)C(=O)N[C@@H](Cc2cccc(O)c2)C(=O)N2CCCC(N2)C(=O)O[C@H](/C(C)=C/C=C/C(=O)Nc2ccccn2)C/C=C/C=C/[C@H](O)[C@H](C)[C@H]1O (some centres unmarked)", "Measured Value": "39.7 µM"}
{"Compound": "CC(=O)CC[C@H]1C(=O)N[C@@H](C(C)C)C(=O)N[C@@H](Cc2cccc(O)c2)C(=O)N2CCCC(N2)C(=O)O[C@H](/C(C)=C/C=C/C(=O)NC(C)C)C/C=C/C=C/[C@H](O)[C@H](C)[C@H]1O (some centres unmarked)", "Measured Value": "> 100 µM"}
{"Compound": "CC(=O)CC[C@H]1C(=O)N[C@@H](C(C)C)C(=O)N[C@@H](Cc2cccc(O)c2)C(=O)N2CCCC(N2)C(=O)O[C@H](/C(C)=C/C=C/C(=O)N(C)C)C/C=C/C=C/[C@H](O)[C@H](C)[C@H]1O (some centres unmarked)", "Measured Value": "> 100 µM"}
{"Compound": "CC(=O)CC[C@H]1C(=O)N[C@@H](C(C)C)C(=O)N[C@@H](Cc2cccc(O)c2)C(=O)N2CCCC(N2)C(=O)O[C@H](/C(C)=C/C=C/C(=O)N(CC(C)C)CC(C)C)C/C=C/C=C/[C@H](O)[C@H](C)[C@H]1O (some centres unmarked)", "Measured Value": "2.1 µM"}

====

Listed compounds paired with reported EC50
- Test system: HCV genotype 1b I389luc-ubi-neo/NS3-3'/5.1 replicon in Huh5.2 cells
- Test: microbe, parasite or virus in culture
- Assay type: cell-based, Hepatitis C Virus
- Assay Setup: Hepatitis C virus, Huh-5-2, 72 h
Measured Metric: EC50

{"Compound": "CNC(=O)/C=C/C=C(\\C)[C@@H]1C/C=C/C=C/[C@H](O)[C@H](C)[C@@H](O)[C@@H](CCC(C)=O)C(=O)N[C@@H](C(C)C)C(=O)N[C@@H](Cc2cccc(O)c2)C(=O)N2CCCC(N2)C(=O)O1 (stereo partly shown) [compound 19]", "Measured Metric": "EC50", "Measured Value": "8000 nM"}
{"Compound": "C/C=C/C[C@H]1C(=O)N[C@@H](C(C)C)C(=O)N[C@@H](Cc2cccc(O)c2)C(=O)N2CCCC(N2)C(=O)O[C@H](/C(C)=C/C=C/C(=O)N(C)OC)C/C=C/C=C/[C@H](O)[C@H](C)[C@H]1O (stereo partly shown) [compound 28]", "Measured Metric": "EC50", "Measured Value": "628 nM"}
{"Compound": "CC(=O)CC[C@H]1C(=O)N[C@@H](C(C)C)C(=O)N[C@@H](Cc2cccc(O)c2)C(=O)N2CCCC(N2)C(=O)O[C@H](/C(C)=C/C=C/C(=O)N2CCCCO2)C/C=C/C=C/[C@H](O)[C@H](C)[C@H]1O (stereo partly shown) [compound 55]", "Measured Metric": "EC50", "Measured Value": "125 nM"}
{"Compound": "CC(=O)CC[C@H]1C(=O)N[C@@H](C(C)C)C(=O)N[C@@H](Cc2cccc(O)c2)C(=O)N2CCCC(N2)C(=O)O[C@H](/C(C)=C/C=C/C(=O)NC(C)C)C/C=C/C=C/[C@H](O)[C@H](C)[C@H]1O (stereo partly shown) [compound 16]", "Measured Metric": "EC50", "Measured Value": "560 nM"}
